Test system: Bacillus subtilis DB104 (SP-AmyQ fusion secretion)
EXPERIMENT: AmyQ secretion efficiency, weighted average sort bin (1 = best secretion, 10 = worst) (bin number (weighted average, 1-10)); higher = lower secretion efficiency
Documented AmyQ secretion efficiency across a set of sequences
Answer with the value's number alone.

Sample records with AmyQ secretion efficiency:
MKWMCSICCAAVLLAGGAAQCEAV	3.23
MKKLLAAGIIGLLTVSIASPNFAAEK	5.52
MKRFSTAYLLLGILCSAAVFLIGAPSRALAAEV	2.35
MKLSVKIALVLIVAAAAMTAKMYATAKGN	3.77

IN: Need AmyQ secretion efficiency, item "MFKIMSAFVGMVLLTIFCFSPQASAAYD"
OUT: 3.33

IN: Quick check: AmyQ secretion efficiency of "MLKKKWMVGLLAGCLAAGGFSYNDFATEN" ?
OUT: 5.83

IN: Consider the sequence "MTSSGFTVFLILLLMLTLVVAPKEKAEAASS" and give its measured AmyQ secretion efficiency.
OUT: 1.98

----------
Test system: Bacillus subtilis DB104 (SP-AmyQ fusion secretion)
EXPERIMENT: AmyQ secretion efficiency, weighted average sort bin (1 = best secretion, 10 = worst) (bin number (weighted average, 1-10)); higher = lower secretion efficiency
Here the recorded AmyQ secretion efficiency is given for each entry.
Respond numerically, and do not add a unit to the figure.

Below, 6 sequences whose answers are already recorded.
MKKQIITATTAVVLGSTLFAEDDDDEASAQSI	3.86
MKKVLMAFIICLSLILSVLAAPPSGAKAASK	1.85
MPYLKRVLLLLVTGLFMSLFAVTATHSAQTG	6.96
MKTKTLFIFSAILTLSIFAPNETFAQRR	1.31
MRMLWRSLALCGLALTLAICIAQAAEP	4.76
MKKMNFSSNSIIVMLATALFLGLTPAGANAADL	4.32

IN: Item under review: "MRKKRVITCVMAASLTLGPAGYASAKED" . Reported AmyQ secretion efficiency?
OUT: 3.6

IN: Sample "MRKTIFAFLTGLMMFFGTITAASASPD" — what was its AmyQ secretion efficiency?
OUT: 1.98

IN: Which AmyQ secretion efficiency is listed for "MFKKLLLATSALTFSLSLVLPLDGHYKAQEV" ?
OUT: 6.94

IN: For the sequence "MLGKIALTLCPAIVGSLLFFTAPASAHVS" , what AmyQ secretion efficiency is on record?
OUT: 2.47

IN: Could you share which AmyQ secretion efficiency value was measured for "MKKRKKKFFGPIILAFILFAGAIAIPS" ?
OUT: 6.45

IN: Would you mind telling me what AmyQ secretion efficiency value was observed for "MKRIRIPMTLALGAALTIAPLSFASAASN" ?
OUT: 1.02

IN: // returns reported AmyQ secretion efficiency for input "MKKWIYVVLVLSIAGIGGFSVHCASS"
OUT: 6.47

----------
Tested on: Bacillus subtilis DB104 (SP-AmyQ fusion secretion)
EXPERIMENT: AmyQ secretion efficiency, weighted average sort bin (1 = best secretion, 10 = worst) (bin number (weighted average, 1-10)); higher = lower secretion efficiency
REPORTED_ENDPOINT: AmyQ secretion efficiency
Reply briefly: the number, and no unit.

Below are worked cases with known answers.
MKRTWNVCLTALLSVLLVAGSVTLVAAPFHAEAKKP	2.5
MKSKGSIMACRRKRRRTITTFINTETISAFSN	6.8
MTKKAWFLPLVCVLLISGWLAPAASASEQTT	1.79

IN: Data request, read-out AmyQ secretion efficiency, for "MTMLRKIIGWILLLCIIPLFAFTVIASGATD"
OUT: 6.31

IN: Recorded AmyQ secretion efficiency for "MKKWSTTIAMLILAGIALFVFISPLKSHKT" , please?
OUT: 5.92

IN: Field request: AmyQ secretion efficiency | item: "MKKRLIAPMLLSAASLAFFAMSGSAQAARR"
OUT: 6.96

IN: # AmyQ secretion efficiency lookup, item "MFGKLLLATSALTFSLSLVLPLDGHAKAQEV"
OUT: 3.02

----------
Test system: Bacillus subtilis DB104 (SP-AmyQ fusion secretion)
EXPERIMENT: AmyQ secretion efficiency, weighted average sort bin (1 = best secretion, 10 = worst) (bin number (weighted average, 1-10)); higher = lower secretion efficiency
Decide by AmyQ secretion efficiency: equal to or exceeding 6 means criterion met, less means criterion not met.

Solved cases (5 shown):
MKKKLAAGLTASAIVGTTLVVTPAEAARK	criterion not met
MYKKFVPRTQYSRLFFVSFEMMENPHALDY	criterion met
MKVCQKSIVRSTTRQRIGTFVISVPFMANAQSD	criterion met
MRPVFPLILSAVLFLSCFFGARQTEASAEEE	criterion not met
MKIRKIKKSSALSFGMLISAVPALAAGT	criterion not met

IN: Could you please find out whether "MLCVMMLLFSAIASFPVSAQIKDQ" has AmyQ secretion efficiency that meets 6 or exceeds it?
OUT: criterion not met

IN: Is it the case that "MKNMSCKLVVSVTLFFSFLTIGPLCHAQNS" has AmyQ secretion efficiency reaching or exceeding 6?
OUT: criterion not met

----------
In this section, each of the sequences is paired with its reported AmyQ secretion efficiency.
System: Bacillus subtilis DB104 (SP-AmyQ fusion secretion)
EXPERIMENT: AmyQ secretion efficiency, weighted average sort bin (1 = best secretion, 10 = worst) (bin number (weighted average, 1-10)); higher = lower secretion efficiency
// no unit string in output, number only

# example entries with known answers
MLCVMMLLFSAIASFPVSDQAKDQ	5.98
MKRIRIPMTLALGAALTIAPLSFASAADE	2.12
MGLGKKLSVAVAASFMSLSISLPGVQQAEG	3.24

IN: Which measured AmyQ secretion efficiency value corresponds to "MKKKQVMLALTAAAGLGLTALHSAPAAKAAPK" ?
OUT: 1.55

IN: Tell me the measured AmyQ secretion efficiency of "MHLIRARRRVCLAVVLIAGCRFNEDQHQAEGENT" , please.
OUT: 6.03

IN: What does the record list as AmyQ secretion efficiency for "MLCVMMLLFSAIASFPVSVQAKDQ" ?
OUT: 3.83

IN: So what does the record say about AmyQ secretion efficiency for "MKKELLASLVLCLSLDDDDETNEVFAATT" ?
OUT: 5.98

IN: Which AmyQ secretion efficiency value is on record for "MLCVMMLLFSAIASFPVSSQAKDQ" ?
OUT: 5.36

IN: Quick one: AmyQ secretion efficiency of "MKKRLIAPMLLSAASLAFFAMSGSHQAAAY" ?
OUT: 5.04

IN: Using the record for "MKRLRRKRRRWMVFLMNWVTPDRKTAAAAVY" , report its AmyQ secretion efficiency.
OUT: 6.85

IN: If you can, please state the reported AmyQ secretion efficiency value of "MTKKAWFLPLVCVLLIVIALIFSFASGWLAPAASASAQTT" .
OUT: 2.12

IN: I would be grateful if you could share the reported AmyQ secretion efficiency for "MKNMSCKLVVSVTLFFSFLTIGPLAHAQED" .
OUT: 2.36

IN: Requested read-out: AmyQ secretion efficiency. Entry: "MKKVLMAFIICLSLILSVLAAPPSGNKAESV"
OUT: 4.42

----------
System: Bacillus subtilis DB104 (SP-AmyQ fusion secretion)
EXPERIMENT: AmyQ secretion efficiency, weighted average sort bin (1 = best secretion, 10 = worst) (bin number (weighted average, 1-10)); higher = lower secretion efficiency
REPORTED_ENDPOINT: AmyQ secretion efficiency
Just the number, please, no unit attached.

Consider the worked cases shown below.
MTKLKMLSMLRRKKASLFIFSSQALAVQY	6.44
MTKKAWFLPLVCVLLISGWLAPAASASSQTT	1.17

IN: Form field: reported AmyQ secretion efficiency of "MRKKLKWLSFLLGFIILLFLFKYQFSNNKR"
OUT: 5.8

IN: Field request: AmyQ secretion efficiency | item: "MKRLFMKLLTTTASLVLFAVVFVFAVKGAPAKAETH"
OUT: 2.87

IN: Fill blank: measured AmyQ secretion efficiency of the sequence "MKKRITYSLLALLAVVAFAFTDSSKSKAAEA" is ____.
OUT: 3.09

IN: Quick check: AmyQ secretion efficiency of "MRKKCSVCKRILVLLLSCLSGKSAYAATS" ?
OUT: 7.44

IN: Name the reported AmyQ secretion efficiency value associated with the sequence "MKLSVKIAGVLTVAAAAMTAKMYATWKGN"
OUT: 7.14

IN: AmyQ secretion efficiency for "MKKCLLFLTTIALILSGSTNAFAKNT" ?
OUT: 1.7

IN: Please give the measured AmyQ secretion efficiency for this sequence: "MLCVMMLLFSAIASFPVSCQAKDQ"
OUT: 5.97

IN: So what's the measured AmyQ secretion efficiency for this one? "MKKIWIGMLAAAVLLLMVPKVSLAEDD"
OUT: 4.09

IN: Which AmyQ secretion efficiency is reported for this sequence? "MNFKKTVVSALSISALALKKRGVASAHEI"
OUT: 6.98

IN: // AmyQ secretion efficiency lookup, key: "MFKFKKNFLVGLSAALMSIKKKKRRASAAST"
OUT: 7.19

IN: For the sequence shown here, "MKKKLAAGLTASAIVGTTLVVTPAEGATI" , give the reported AmyQ secretion efficiency.
OUT: 3.33

IN: Need AmyQ secretion efficiency of "MKSKWMSGLLLVAVGFSFTQVMWHAGET" , thanks.
OUT: 7.01

IN: Recorded AmyQ secretion efficiency of "MAIIIAIIAAVIVIAALITFNVRNASKR" , please.
OUT: 7.12

IN: Field request: AmyQ secretion efficiency | item: "MKVPKTMLLSTAAGLLLSLTATSISAHYV"
OUT: 6.77

IN: May I ask what AmyQ secretion efficiency has been recorded for "MKKKLAAGLTASAIVGTTLVVAEAATI" ?
OUT: 5.78

IN: Can you look up the measured AmyQ secretion efficiency of "MTKRGIQAFAGGIYLTDEDQAAAV" for me?
OUT: 7.17

IN: What value of measured AmyQ secretion efficiency is listed for "MKKRLIAPMLLSAASLAFFAKRKSAQAAAY" ?
OUT: 7.88

Data origin: the supplement of paper PMC9942255
